Numbers sourced from the supplement of paper PMC8728848.

Molecular target: Neu5Ac(a2-3)Gal(b1-4)GlcNAc(b1-2)[Neu5Ac(a2-3)Gal(b1-4)GlcNAc(b1-4)]Man(a1-3)[GlcNAc(b1-4)][Neu5Ac(a2-3)Gal(b1-4)GlcNAc(b1-2)[Neu5Ac(a2-3)Gal(b1-4)GlcNAc(b1-6)]Man(a1-6)]Man(b1-4)GlcNAc(b1-4)GlcNAc
Test: glycan array binding signal (z-score within array); higher = stronger binding
Settings: glycan notation: IUPAC condensed, linker removed
The full list was thinned out, with the strongest signals kept by preference.
glycan array binding signal (z-score) for assorted binders
readout.name: glycan array binding signal (z-score)

Als3-2 (Candida albicans) (protein) KTITGVFNSFNSLTWSNAATYNYKGPGTPTWNAVLGWSLDGTSASPGDTFTLNMPCVFKFTTSQTSVDLTAHGVKYATCQFQAGEEFMTFSTLTCTVSNTLTPSIKALGTVTLPLAFNVGGTGSSVDLEDSKCFTAGTNTVTFNDGGKKISINVDFERSNVDPKGYLTD ... 3.2
Epa8 (Candida glabrata) (protein) MGSSHHHHHHSSGLVPRGSHMASSRALSDYPLGCSPLLGTKLTPGLSMELYEYPLDNHGIGPHCWDPAYLNPEYPRTGFESHKLIGTAQNVMSLNFEHRTQDCHVEFSNLPASFNFPDQITLTNFTMLLYGYFKPKESGRYRFHMEADDLLLMNLGAGNAFDCCAHEATRNNLGDYIAYDIWAGTRKDVEVFLEKEVFYPLRLFFNNRDGRAALDFSYYLNGATEPGTDIPELLFSLPDGESCPAYI ... -0.346
Protein L(B1-B4) (Finegoldia magna), Q51912 (protein) KEETPETPETDSEEEVTIKANLIFANGSTQTAEFKGTFEKATSEAYAYADTLKKDNGEYTVDVADKGYTLNIKFAGKEKTPEEPKEEVTIKANLIYADGKTQTAEFKGTFEEATAEAYRYADALKKDNGEYTVDVADKGYTLNIKFAGKEKTPEEPKEEVTIKANLIYADGKTQTAEFKGTFEEATAEAYRYADLLAKENGKYTVDVADKGYTLNIKFAGKEKTPEEPKEEVTIKANLIYADGKTQTAEFKGTFAEATAEAYRYADLLAKENGKYTADLEDGGYTINIRFAG ... -0.913
HA-00510 (Pseudomonas aeruginosa), Q02V39_PSEAB (protein) GVPIVNIATPNGAGLSNNHFRDYNVGANGLILNNATGKTQGTQLGGIILGNPNLKGQAAQVILNQVTGGNRSTLAGYTEVAGQSARVIVANPHGITCQGCGFINTPRATLTTGKPIMDGQRLERFQVDGGDIVVEGAELNVGNLEQFDLITRSAKLNAKLYAKNLNIVTGRNDVQADSLQATPRAADGSEKPQLAIDSSALGGMYAGAIRLVGTEQGVGVKLAGDMAASGGDIRIDASGKLSLAQASSQGDLKIAAQAVELNGKTYAGGSAEIRSAEELVNRQS ... 0.048
